All figures here come from PubChem BioAssay (NCI).

- System: MDA-MB-231 breast
- PROTOCOL DETAILS: NCI tumour cell line growth inhibition, 48 h
Readings of GI50 for the listed molecules

CN1CCC(CNc2cc(C3(C(=O)Nc4cc(C(=O)Nc5ccc(Cl)c(C(F)(F)F)c5)ccc4F)CC3)ncn2)CC1
1420 nM
O=C(O)c1nc(NCc2nc3cc(Cl)ccc3o2)n[nH]1
> 100000 nM
N#C[Se]Cc1cc(-c2ccccc2)n(-c2ccc(S(N)(=O)=O)cc2)n1
912 nM
O=C1/C(=C/c2ccc([N+](=O)[O-])cc2)CN(C(=O)CCN2CCC(=NO)CC2)C/C1=C\c1ccc([N+](=O)[O-])cc1
869 nM

Retrieve GI50 measured for O=C1OCC2=C1C(c1cccc(F)c1)c1cc3c(cc1N2CCO)OCO3 (centres undefined) and print it.
3090 nM

Retrieve GI50 measured for `COc1cc(/C=C/C(=O)c2c(C)nc3ccccc3c2/C=C/c2ccccc2)cc(OC)c1OC` and print it.
2150 nM

Retrieve GI50 measured for `c1ccc(-c2nc(-c3ccccn3)nc(-c3ccccn3)n2)nc1` and print it.
32600 nM

Retrieve GI50 measured for `CCc1c2c(nc3ccc(OCc4ccc(B(O)O)cc4)cc13)-c1cc3c(c(=O)n1C2)COC(=O)[C@]3(O)CC` and print it.
1370 nM

Retrieve GI50 measured for `C/C(=N/O)c1cccc(Nc2cc(-n3nnc4ccccc43)nc3ccccc23)c1` and print it.
7200 nM

###

- System: OVCAR-8 ovarian
- PROTOCOL DETAILS: NCI tumour cell line growth inhibition, 48 h
MEASURED ATTRIBUTE: TGI

Take a look at these entries with their results.
N#CCCN(CCC#N)c1ccc(/C=C2\N=C(c3ccccc3)N(c3ccc(F)cc3)C2=O)cc1
> 100 µM
C[N+](C)(C)CCC(=O)CC[N+](C)(C)C
44 µM
CCc1c2c(nc3ccc(OCc4ccc(B(O)O)cc4)cc13)-c1cc3c(c(=O)n1C2)COC(=O)[C@]3(O)CC
> 32.1 µM
O=C(O)CC(Cc1ccccc1Cl)C(=O)O (stereo unspecified)
> 100 µM
CCc1cccc(C)c1NS(=O)(=O)c1ccccc1
> 100 µM

Answer with TGI of `O=S(=O)(Nc1ccc(Br)cc1)c1ccc(-c2cnc(C3CC3)o2)cc1` measured for OVCAR-8 ovarian.
20.4 µM

Answer with TGI of COC(=O)C1=CO[C@@H](OC2CC(CO)C(O)C(O)C2O)[C@@H]2[C@@H](C)[C@@H](OC(=O)/C=C/c3ccccc3)[C@@H](O)[C@H]12 (stereo partly specified) (tested in a mixture with another compound) measured for OVCAR-8 ovarian.
> 100 µM

Answer with TGI of Cc1nc(C(N)=O)c(N)n1CCN1CCN(C(=O)CCCCCCCCCCNC2N=CNc3nc[nH]c32)CC1 (stereo unspecified) measured for OVCAR-8 ovarian.
> 100 µM

Answer with TGI of `Cc1ccc2c(c1)-c1nc(N)c(C#N)c(-c3ccc(Cl)cc3)c1CCS2(=O)=O` measured for OVCAR-8 ovarian.
> 100 µM

Answer with TGI of `Cc1ccc(Nc2nc3[nH]ccc3c(=O)[nH]2)cc1` measured for OVCAR-8 ovarian.
> 100 µM

Answer with TGI of `O=C1c2cccc([N+](=O)[O-])c2C(=O)N1Cc1ccccc1` measured for OVCAR-8 ovarian.
> 100 µM

Answer with TGI of `Cn1c(=O)c2[nH]c(N/N=N/c3nncs3)nc2n(C)c1=O` measured for OVCAR-8 ovarian.
> 100 µM

Answer with TGI of c1ccc(C2ONC3=NCCN32)cc1 (stereo unspecified) measured for OVCAR-8 ovarian.
> 100 µM

Answer with TGI of `FC(F)(F)c1cccc(-c2nc3nc(Cl)c(Cl)nc3[nH]2)c1` measured for OVCAR-8 ovarian.
> 100 µM

Answer with TGI of Cc1c(OC(C)C(=O)O)ccc2c(-c3ccccc3)cc(=O)oc12 (stereo unspecified) measured for OVCAR-8 ovarian.
> 100 µM

Answer with TGI of `Fc1ccc(C(OCCN2CCN(CCCc3ccccc3)CC2)c2ccc(F)cc2)cc1` measured for OVCAR-8 ovarian.
13 µM

Answer with TGI of COc1ccc2nccc(C3=CCC4CCN(C(=O)c5ccccc5)C3C4)c2c1 (stereo unspecified) measured for OVCAR-8 ovarian.
> 100 µM

Answer with TGI of `COc1cc(/C=C/C(=O)c2c(C)nc3ccccc3c2/C=C/c2ccccc2)cc(OC)c1OC` measured for OVCAR-8 ovarian.
> 100 µM

Answer with TGI of c1ncn(C23C4C5C6C4C2C6C53)n1 (stereo unspecified) measured for OVCAR-8 ovarian.
> 100 µM

Answer with TGI of `CN1CCC(CNc2cc(C3(C(=O)Nc4cc(C(=O)Nc5ccc(Cl)c(C(F)(F)F)c5)ccc4F)CC3)ncn2)CC1` measured for OVCAR-8 ovarian.
14.9 µM

Answer with TGI of `COC(=O)c1sc(C(=O)OC)c2c1CS(=O)C2` measured for OVCAR-8 ovarian.
> 100 µM
